Reference source for all entries: PubChem BioAssay (NCI)

# Tested on: HOP-92 NSCLC
# assay procedure: NCI-60 one-dose screen, 48 h (100 = growth as untreated, 0 = no growth, -100 = all killed)
# reported conditions: 10 µM unless noted
Compounds without any hit were thinned out: in the full panel of roughly 83,000, 20% have a hit.
assay endpoint: growth (%)

molecule	measured value
COc1cc(/C=C/c2cc(/C=C/c3ccc(O)c(OC)c3)n(-c3ccc(Cl)cc3)c(=O)n2)ccc1O	88.6
N#C/C(=C\c1ccc(-c2ccccc2)o1)c1nc(-c2ccco2)cs1	87.4
CCOc1ccc(NC(=O)c2ccccc2-c2ccccc2C(=O)O)cc1	106
CCOc1ccc(NC(=O)c2ccoc2COc2ccccc2)cc1	95.2
COc1ccc(NC(=O)c2ccoc2COc2ccccc2)cc1	88.8
COc1cccc(-c2nn(-c3ccccc3)cc2-c2ccnc(NCCCO)c2)c1	41.8
C[C@@H](C(=O)O)c1ccc2c3cc(Cl)ccc3n(Cc3cc(=O)oc4ccc(Cl)cc34)c2c1	108
N#Cc1c(-c2ccc(O)cc2)c2c(N)nn(-c3ccccc3)c2[nH]c1=O	96.6
Nc1c2c(nc3ccc(Br)cc13)CC(c1ccccc1)CC2=O (configuration not stated)	77.9
Cn1cc(-c2csc(-c3cn(CCCN4CCCCC4)c4ccccc34)n2)c2cccnc21	57.8
Nc1ccc(Cl)cn1	87
COc1cc(-c2c(C#N)c(-c3cccs3)nc3c2c(-c2ccccc2)nn3-c2ccccc2)ccc1O	93.5
O=C1c2cc3c(cc2-c2c1c1ccc(Cl)cc1c(=O)n2C[C@H](O)[C@@H](O)[C@H](O)CO)OCO3	12.4
CCCCCCCC(=O)SCC/C=C/[C@@H]1CC(=O)NCc2cccc(n2)CN(Cc2ccc3ccccc3c2)CC(=O)N[C@@H](C(C)C)C(=O)O1	18.2
O=C1C(=O)c2ccccc2C(O)=C1CCCc1ccc(C2CCCCC2)cc1	40.7
COc1ccc(-c2cc(=O)oc3ccc(Cl)cc23)cc1F	33.6
C=C(C)[C@@H]1CC[C@]2(C(=O)NNC(=O)c3cccnc3)CC[C@]3(C)[C@H](CC[C@@H]4[C@@]5(C)CCCNC(C)(C)[C@@H]5CC[C@]43C)[C@@H]12	50.5

* * *

# System: SF-268 CNS
# assay procedure: NCI-60 one-dose screen, 48 h (100 = growth as untreated, 0 = no growth, -100 = all killed)
# reported conditions: 10 µM unless noted
The panel holds about 83,000 compounds, 20% with a hit somewhere; the sample as a whole holds those more often.
Strictly below 90% in growth: Fulfilled. Otherwise: Not fulfilled.

molecule	label class
Cn1c(=O)c2c(nc(N3CCCC3)n2C)n(C)c1=O	Not fulfilled
CC(C)=CCC[C@](C)(O)[C@H]1CC[C@]2(C)[C@@H]1CC[C@@H]1[C@@]3(C)C/C(=C/c4cccc([N+](=O)[O-])c4)C(=O)C(C)(C)[C@@H]3CC[C@]12C	Not fulfilled
Nc1ccccc1NC(=O)c1ccc(CN2CCC/C(=C\c3ccccn3)C2=O)cc1	Fulfilled
Cc1oc(-c2ccccc2Cl)cc1C(=O)Nc1ccc(S(N)(=O)=O)cc1	Not fulfilled
CC1(C)C=CC[C@]2(C)[C@H]3CC[C@@H]4[C@H]5[C@H](C(=O)/C=C/c6cccnc6)CC[C@]5(CO)CC[C@@]4(C)[C@]3(C)CC[C@@H]12	Fulfilled
O=C1C=Cc2ncccc2C1=O	Not fulfilled
COc1cc2c(cc1-c1c(C)noc1C)ncc1nc(C3CC3)n([C@H](C)COC(F)F)c12	Fulfilled
O=Cc1nc2ccccc2[nH]1	Not fulfilled
COc1cc2c(cc1OC)C(=O)/C(=C/c1cc(-c3ccc4c(c3)OCO4)n[nH]1)C2	Fulfilled
CCC1C(=O)COC1=O (configuration not stated)	Not fulfilled
COC(=O)[C@]12CC[C@@H](C(=O)/C=C/c3cccnc3)[C@@H]1[C@H]1CC[C@@H]3[C@@]4(C)C/C(=C/c5cccnc5)C(=O)C(C)(C)[C@@H]4CC[C@@]3(C)[C@]1(C)CC2	Fulfilled
